The reported numbers originate from patent US8012949B2.

Target: human FPPS (Homo sapiens)
Construct: made in house
Sequence (P14324 1-419): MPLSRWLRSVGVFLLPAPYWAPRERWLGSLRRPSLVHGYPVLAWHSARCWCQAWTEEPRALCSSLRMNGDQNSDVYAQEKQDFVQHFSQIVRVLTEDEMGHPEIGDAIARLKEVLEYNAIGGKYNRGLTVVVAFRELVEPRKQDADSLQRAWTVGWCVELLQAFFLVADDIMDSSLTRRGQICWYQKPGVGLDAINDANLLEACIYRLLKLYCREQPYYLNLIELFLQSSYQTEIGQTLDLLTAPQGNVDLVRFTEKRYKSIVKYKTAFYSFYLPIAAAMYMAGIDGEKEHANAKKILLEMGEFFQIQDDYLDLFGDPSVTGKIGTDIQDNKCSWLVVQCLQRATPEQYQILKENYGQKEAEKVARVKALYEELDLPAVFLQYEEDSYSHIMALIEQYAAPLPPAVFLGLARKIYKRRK
Assay: human FPPS enzyme inhibition
Type: biochemical
Details: Table 1, experimental
The following compounds are listed with their measured FPPS pKi (M) values.
Expressed in M, but write only the number.

[
  {
    "compound": "O=P([O-])(O)C(C[n+]1cccc(Br)c1)P(=O)(O)O (stereo not drawn)",
    "parameterMeasured": "FPPS pKi (M)",
    "measured": 8.5
  },
  {
    "compound": "CCCCCCCCCCCCCC[S+](C)CC(P(=O)([O-])O)P(=O)(O)O (stereo not drawn)",
    "parameterMeasured": "FPPS pKi (M)",
    "measured": 7.1
  },
  {
    "compound": "Cc1ccc[n+](CC(P(=O)([O-])O)P(=O)(O)O)c1 (stereo not drawn)",
    "parameterMeasured": "FPPS pKi (M)",
    "measured": 8.4
  },
  {
    "compound": "O=P([O-])(O)C(C[n+]1cccc(-c2ccccc2)c1)P(=O)(O)O (stereo not drawn)",
    "parameterMeasured": "FPPS pKi (M)",
    "measured": 8.6
  },
  {
    "compound": "CCOCCOCCCc1ccc[n+](CC(P(=O)([O-])O)P(=O)(O)O)c1 (stereo not drawn)",
    "parameterMeasured": "FPPS pKi (M)",
    "measured": 8.2
  },
  {
    "compound": "CC(C)CCCC(C)CCOc1ccc[n+](CC(P(=O)([O-])O)P(=O)(O)O)c1 (stereo not drawn)",
    "parameterMeasured": "FPPS pKi (M)",
    "measured": 6.8
  }
]

// O=P([O-])(O)C(O)(C[n+]1cccc(-c2c[nH]cn2)c1)P(=O)(O)O (stereo not drawn) : FPPS pKi (M) value = 8.2

// O=P([O-])(O)C(O)(C[n+]1cccc(-c2ccccc2)c1)P(=O)(O)O (stereo not drawn) : FPPS pKi (M) value = 8.3

// O=P([O-])(O)C(O)(C[n+]1ccccc1)P(=O)(O)O (stereo not drawn) : FPPS pKi (M) value = 8.6

---

The following compounds are listed with their measured Ki values.
Target: human recombinant geranylgeranyl diphosphate synthase (hGGPPS) (Homo sapiens)
Construct: made in house
Sequence (O95749 1-300): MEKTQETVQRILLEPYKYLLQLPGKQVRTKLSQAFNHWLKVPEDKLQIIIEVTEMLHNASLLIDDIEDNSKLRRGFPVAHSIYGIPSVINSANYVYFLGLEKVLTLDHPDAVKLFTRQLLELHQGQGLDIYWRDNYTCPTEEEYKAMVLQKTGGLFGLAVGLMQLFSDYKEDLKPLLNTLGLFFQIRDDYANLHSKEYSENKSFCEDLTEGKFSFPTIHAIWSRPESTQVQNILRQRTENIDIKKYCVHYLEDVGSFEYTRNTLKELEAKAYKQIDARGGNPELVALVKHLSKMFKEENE
Assay: Human recombinant GGPPS inhibition (radiometric assay)
Type: biochemical
Conditions: Table 1, experimental; read-out: GGPPS pKi (converted)
Expressed in µM, but write only the number.

The examples below pair each entry with its known result.
[
  {
    "compound": "CCCCCCCCCCOc1cccc(CC(O)(P(=O)(O)O)P(=O)(O)O)c1",
    "unitsSymbol": "µM",
    "measured": 0.0158
  },
  {
    "compound": "CCCCCCCOc1ccc[n+](CC(P(=O)([O-])O)P(=O)(O)O)c1 (stereo not shown)",
    "unitsSymbol": "µM",
    "measured": 0.0631
  },
  {
    "compound": "CCCCCCCCc1ccc[n+](CC(P(=O)([O-])O)P(=O)(O)O)c1 (stereo not shown)",
    "unitsSymbol": "µM",
    "measured": 0.0398
  }
]

// CCCCC[S+](C)CC(P(=O)([O-])O)P(=O)(O)O (stereo not shown) : Ki value = 0.251

---

biological target: human DPPS (Homo sapiens, UniProt Q5T2R2); construct: made in house; assay: human DPPS enzyme inhibition; format: biochemical; details: Table 1, experimental; read-out: DPPS_pKi (converted)
parameterMeasured: Ki (nM)
Expressed in nM, but write only the number.

[
  {
    "compound": "CCCCCCCCCCOc1cccc(CC(O)(P(=O)(O)O)P(=O)(O)O)c1",
    "parameterMeasured": "Ki",
    "measured": 200
  },
  {
    "compound": "CCCCCCCCc1cc[n+](CC(P(=O)([O-])O)P(=O)(O)O)cc1 (stereo not shown)",
    "parameterMeasured": "Ki",
    "measured": 79.4
  }
]

// CCCCCCCCc1ccc[n+](CC(P(=O)([O-])O)P(=O)(O)O)c1 (stereo not shown) : Ki value = 501

// CCCCC[S+](C)CC(P(=O)([O-])O)P(=O)(O)O (stereo not shown) : Ki value = 100

// CCCCCCCC[S+](C)CC(P(=O)([O-])O)P(=O)(O)O (stereo not shown) : Ki value = 63.1

// CCCCCCCCCCc1ccc[n+](CC(P(=O)([O-])O)P(=O)(O)O)c1 (stereo not shown) : Ki value = 501

// CCCCCCCOc1ccc[n+](CC(P(=O)([O-])O)P(=O)(O)O)c1 (stereo not shown) : Ki value = 6.31

---

biological target: human DPPS (Homo sapiens); construct: made in house; assay: human DPPS enzyme inhibition; format: biochemical; conditions: Table 1, experimental
Please enter criterion met where DPPS pKi is greater than or equal to 7, and criterion not met where it is lower.

[
  {
    "molecule": "CCCCCCCCCCCCCC[S+](C)CC(P(=O)([O-])O)P(=O)(O)O (centres unmarked)",
    "classAssignment": "criterion not met"
  }
]

Okay, now this molecule:
Reported DPPS pKi reaches at least 7 for CCCCCN(C)CCC(O)(P(=O)(O)O)P(=O)(O)O [BPH-24, reference compound] ?
criterion met

---

The following compounds are listed with their measured DPPS pKi values.
Molecular target: human DPPS (Homo sapiens)
Construct: made in house
Sequence (Q5T2R2 1-415): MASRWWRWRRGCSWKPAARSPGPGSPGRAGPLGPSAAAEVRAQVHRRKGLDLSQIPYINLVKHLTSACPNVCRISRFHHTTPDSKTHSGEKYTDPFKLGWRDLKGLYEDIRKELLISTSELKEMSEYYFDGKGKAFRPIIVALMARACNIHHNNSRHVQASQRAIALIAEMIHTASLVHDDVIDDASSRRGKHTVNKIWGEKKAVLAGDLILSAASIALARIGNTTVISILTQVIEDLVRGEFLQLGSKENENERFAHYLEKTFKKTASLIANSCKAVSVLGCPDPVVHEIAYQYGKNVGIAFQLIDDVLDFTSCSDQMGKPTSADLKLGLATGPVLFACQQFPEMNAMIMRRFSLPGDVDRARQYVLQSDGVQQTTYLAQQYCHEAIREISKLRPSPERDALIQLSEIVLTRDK
Sequence (Q86YH6 1-399 partner): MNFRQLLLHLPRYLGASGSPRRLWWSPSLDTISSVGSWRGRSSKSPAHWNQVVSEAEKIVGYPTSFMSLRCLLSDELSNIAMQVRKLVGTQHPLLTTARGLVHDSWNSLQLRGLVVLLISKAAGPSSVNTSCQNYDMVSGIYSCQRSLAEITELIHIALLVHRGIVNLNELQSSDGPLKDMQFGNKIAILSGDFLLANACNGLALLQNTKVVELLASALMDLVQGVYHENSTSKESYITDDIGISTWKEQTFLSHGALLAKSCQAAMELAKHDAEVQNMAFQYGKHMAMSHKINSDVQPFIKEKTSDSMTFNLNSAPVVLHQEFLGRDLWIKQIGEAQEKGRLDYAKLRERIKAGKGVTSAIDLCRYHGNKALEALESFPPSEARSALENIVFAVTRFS
Experiment: human DPPS enzyme inhibition
Format: biochemical
Conditions: Table 1, experimental

The examples below pair each entry with its known result.
[
  {
    "compound": "CC(C)CCCC(C)CCOc1ccc[n+](CC(P(=O)([O-])O)P(=O)(O)O)c1 (stereo not drawn)",
    "systemUnderTest": "human DPPS (Homo sapiens)",
    "DPPS pKi": 6.3
  },
  {
    "compound": "O=P([O-])(O)C(C[n+]1cccc(Br)c1)P(=O)(O)O (stereo not drawn)",
    "systemUnderTest": "human DPPS (Homo sapiens)",
    "DPPS pKi": 6.8
  }
]

Next, consider the following compound.
// NCCCC(O)(P(=O)(O)O)P(=O)(O)O [BPH-1, reference compound] : DPPS pKi value = 6.3
